Origin of measurements: patent US12258377B2

# System: splenocytes
# assay-notes: Ex vivo elispot assay on splenocytes of immunised HLA-DR4 transgenic mice
# Assay type: in vivo
# condition-set: 25 μg peptide day 0; day 14; increasing peptide concentration; IL-17 elispot; read-out: avidity of the IL-17 response (concentration mediating 50% maximal effector function)
# Protocol: C57BL/6 mice (Charles River, UK), HLA-DR4 mice (Taconic, USA), HHDII mice (Pasteur institute, France) and HHDII/DRI mice (Pasteur institute, France) were used, aged between 8 and 12 weeks, and cared for by the staff at Nottingham Trent University. […] Elispot assays were performed using murine IFNγ, IL-17 and IL-10 capture and detection reagents according to the manufacturer's instructions (Mabtech, Sweden). […] Spots were analysed and counted using an automated plate reader (Cellular Technologies Ltd). […]
Square brackets hold non-standard residues; d marks the D form. Ends that are not written are not given here. Cit = NC(=O)NCCC[C@H](N)C(=O)O
readout-kind: pEC50
Please express pEC50 as -log10 of the molar concentration.

Lab note: measured pEC50 of citSYVTTSTcitTYSLGSALcitPSTS ([Cit]SYVTTST[Cit]TYSLGSAL[Cit]PSTS) [citrullinated vim 28-49] was 6.00

###

# System: splenocytes
# assay-notes: Ex vivo elispot assay on splenocytes of immunised HLA-DR4 transgenic mice
# Type: in vivo
# condition-set: 25 μg peptide day 0; day 14; increasing peptide concentration; IFNγ elispot; read-out: avidity of the IFNγ response (concentration mediating 50% maximal effector function)
Square brackets hold non-standard residues; d marks the D form. Ends that are not written are not given here. Cit = NC(=O)NCCC[C@H](N)C(=O)O
readout-kind: EC50 (nM)
The response must be a number in nM with no trailing unit.

Lab note: measured EC50 of citSYVTTSTcitTYSLGSALcitPSTS ([Cit]SYVTTST[Cit]TYSLGSAL[Cit]PSTS) [citrullinated vim 28-49] was 1000
